Cited source: patent US20240360238A1

biological target: T1, purified human CD117 ectodomain (R&D Systems #332-SR) (human, UniProt P10721 26-524); experiment: BLI, IgG on anti-human Fc sensor, 33 and 11 nM ectodomain;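 note: Kd, kon and koff are apparent values, with Kd reported as the apparent monovalent affinity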
T1 construct: extracellular domain; Bought protein; also called c-kit; purified recombinant human CD117 ectodomain
T1 sequence (P10721 26-524): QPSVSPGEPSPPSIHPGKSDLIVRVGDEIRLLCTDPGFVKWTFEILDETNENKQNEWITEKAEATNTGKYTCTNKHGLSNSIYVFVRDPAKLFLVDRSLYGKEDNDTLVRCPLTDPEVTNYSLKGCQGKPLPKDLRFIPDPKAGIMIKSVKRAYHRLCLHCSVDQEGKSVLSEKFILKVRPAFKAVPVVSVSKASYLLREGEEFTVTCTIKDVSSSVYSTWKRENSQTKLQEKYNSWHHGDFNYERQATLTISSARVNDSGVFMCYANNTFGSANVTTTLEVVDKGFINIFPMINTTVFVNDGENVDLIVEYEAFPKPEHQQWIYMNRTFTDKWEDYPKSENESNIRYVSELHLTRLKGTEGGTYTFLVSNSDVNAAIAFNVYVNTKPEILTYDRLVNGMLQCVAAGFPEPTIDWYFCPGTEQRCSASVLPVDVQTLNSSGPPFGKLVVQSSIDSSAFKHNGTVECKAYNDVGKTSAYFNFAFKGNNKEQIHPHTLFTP
Outcome Measure: pKd
Reminder that pKd is minus the log10 of a molar concentration.

Binder | Outcome Measure | Reading
HC-247/LC-247 (Ab247) (antibody, V domains shown, IgG on anti-human Fc sensors; hIgG1/hKappa) VH: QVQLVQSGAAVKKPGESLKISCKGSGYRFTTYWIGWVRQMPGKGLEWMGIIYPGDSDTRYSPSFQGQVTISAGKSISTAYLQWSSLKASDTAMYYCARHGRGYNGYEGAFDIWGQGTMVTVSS VL: DIQMTQSPSSLSASVGDRVTITCRASRGISDYLAWYQQKPGKAPKLLIYDASNLETGVPSRFSGSGSGTDFTLTISSLQPEDFATYYCQQANSFPITFGQGTRLEIK | pKd | 8.77
HC-246/LC-246 (Ab246) (antibody, V domains shown, IgG on anti-human Fc sensors; hIgG1/hKappa) VH: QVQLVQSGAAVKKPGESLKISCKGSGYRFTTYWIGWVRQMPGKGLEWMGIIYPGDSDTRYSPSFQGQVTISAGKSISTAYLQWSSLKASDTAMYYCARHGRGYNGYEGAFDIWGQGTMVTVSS VL: DIQMTQSPSSLSASVGDRVTITCRASQGIGSALAWYQQKPGKAPKLLIYDASTLESGVPSRFSGSGSGTDFTLTISSLQPEDFATYYCQQFNGYPLTFGQGTRLEIK | pKd | 9.15
HC-1/LC-1 (Ab1) (antibody, IgG1, V domains shown, Purified IgG (IgG1); also called 001; CK6 derivative Ab1) VH: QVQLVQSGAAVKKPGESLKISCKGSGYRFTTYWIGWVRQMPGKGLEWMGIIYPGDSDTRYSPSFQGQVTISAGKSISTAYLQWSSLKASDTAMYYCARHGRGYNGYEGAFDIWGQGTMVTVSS VL: AIQLTQSPSSLSASVGDRVTITCRASQGVSSALAWYQQKPGKAPKLLIYDASSLESGVPSRFSGSGSGTDFTLTISSLQPEDFATYYCQQFNSYPLTFGGGTKVEIK | pKd | 8.39

-- ask Supply measured pKd of HC-248/LC-248 (Ab248) (antibody, V domains shown, IgG on anti-human Fc sensors; hIgG1/hKappa) VH: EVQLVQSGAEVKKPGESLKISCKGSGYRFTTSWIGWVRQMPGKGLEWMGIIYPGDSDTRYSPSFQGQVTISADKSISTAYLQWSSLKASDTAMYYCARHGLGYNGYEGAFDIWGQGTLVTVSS VL: DIQMTQSPSSLSASVGDRVTITCRASQGIGSALAWYQQKPGKAPKLLIYDASTLESGVPSRFSGSGSGTDFTLTISSLQPEDFATYYCQQLNGYPLTFGQGTRLEIK in your reply.
-- reply 9.04

-- ask Supply measured pKd of HC-249/LC-249 (Ab249) (antibody, V domains shown, IgG on anti-human Fc sensors; hIgG1/hKappa) VH: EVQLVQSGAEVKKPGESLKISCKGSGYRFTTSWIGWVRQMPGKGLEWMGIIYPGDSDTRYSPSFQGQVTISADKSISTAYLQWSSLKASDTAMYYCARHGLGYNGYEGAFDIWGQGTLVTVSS VL: DIQMTQSPSSLSASVGDRVTITCRASQGIGSALAWYQQKPGKAPKLLIYDASNLETGVPSRFSGSGSGTDFTLTISSLQPEDFATYYCQQLNGYPLTFGQGTRLEIK in your reply.
-- reply 9.26
